system-tested: T1, Recombinant Human TNF-α/TNFSF1A (human, UniProt P01375 77-233)
T1 construct: also called hTNF-α; huTNFα
T1 sequence (P01375 77-233 limits assumed): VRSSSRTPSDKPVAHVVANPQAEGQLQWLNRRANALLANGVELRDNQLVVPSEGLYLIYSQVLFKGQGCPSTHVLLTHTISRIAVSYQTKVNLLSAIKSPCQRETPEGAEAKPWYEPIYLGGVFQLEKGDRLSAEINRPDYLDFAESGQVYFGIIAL
experimental-protocol: SPR (BIACORE), antibody captured, TNFα in solution
endpoint: koff (s⁻¹)
Numbers only; they are read as s⁻¹.

AB372 (antibody, V domains shown, Full-length humanized antibody made in HEK 293-6E; also called hMAK199VH.2/hMAK199VL.2) VH: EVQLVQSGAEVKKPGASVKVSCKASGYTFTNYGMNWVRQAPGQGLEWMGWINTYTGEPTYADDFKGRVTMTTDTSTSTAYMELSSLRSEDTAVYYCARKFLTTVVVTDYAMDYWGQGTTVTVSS VL: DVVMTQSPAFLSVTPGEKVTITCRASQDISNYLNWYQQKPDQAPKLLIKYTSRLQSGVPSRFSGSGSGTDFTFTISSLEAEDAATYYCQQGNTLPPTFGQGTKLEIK
0.0011

Name the reported koff value associated with the binder AB375 (antibody, V domains shown, Full-length humanized antibody made in HEK 293-6E; also called hMAK199VH.2a/hMAK199VL.1) VH: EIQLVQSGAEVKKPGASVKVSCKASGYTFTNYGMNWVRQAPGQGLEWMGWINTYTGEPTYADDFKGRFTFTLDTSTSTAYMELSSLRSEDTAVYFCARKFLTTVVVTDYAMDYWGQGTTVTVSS VL: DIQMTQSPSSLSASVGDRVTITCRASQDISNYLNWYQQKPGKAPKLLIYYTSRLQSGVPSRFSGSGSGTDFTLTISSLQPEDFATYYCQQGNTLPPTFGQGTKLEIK
0.0011
